system: Dugesia japonica; experiment: C-shape incidence (% planarians (vehicle-normalised)); higher = higher incidence or increase relative to vehicle control; details: exposure time: 15 min to 3 h acute
Where a name gives a salt, the structure may show the parent alone.
# C-shape incidence annotations
outcomeMeasure: C-shape incidence

# molecule, targetOfAssay, outcomeMeasure, readoutValue
records = [
    ("CNCC[C@H](Oc1cccc2ccccc12)c1cccs1 [s-duloxetine] (100 µM)", "Dugesia japonica", "C-shape incidence", 13),
    ("CN1C(=O)CN=C(c2ccccc2)c2cc(Cl)ccc21 [diazepam] (10 µM)", "Dugesia japonica", "C-shape incidence", 0),
    ("CNCCC(Oc1ccc(C(F)(F)F)cc1)c1ccccc1 (stereo not drawn) [fluoxetine hydrochloride] (1 µM)", "Dugesia japonica", "C-shape incidence", 0),
]

###

tested on: Dugesia japonica; experiment: loss of phototaxis incidence (% planarians (vehicle-normalised)); higher = higher incidence or increase relative to vehicle control; details: exposure time: 15 min to 3 h acute
Counter-ions that a name gives are not always drawn.
The threshold is inclusive: loss of phototaxis incidence of exactly 20 counts as 1; values below receive 0.

# compound, class
data = [
    ("O=C(CCCN1CC=C(n2c(=O)[nH]c3ccccc32)CC1)c1ccc(F)cc1 [droperidol] (31.6 µM)", 1),
    ("CN[C@H]1CC[C@@H](c2ccc(Cl)c(Cl)c2)c2ccccc21 [sertraline hydrochloride] (31.6 µM)", 0),
    ("CN(C)CCC[C@@]1(c2ccc(F)cc2)OCc2cc(C#N)ccc21 [escitalopram] (10 µM)", 0),
    ("CNCCC(Oc1ccc(C(F)(F)F)cc1)c1ccccc1 (centres undefined) [fluoxetine hydrochloride] (10 µM)", 0),
    ("CN(C)CCCN1c2ccccc2CCc2ccccc21 [imipramine] (3.16 µM)", 0),
    ("CC(NC(C)(C)C)C(=O)c1cccc(Cl)c1 (centres undefined) [bupropion] (31.6 µM)", 1),
    ("CN1C(=O)CN=C(c2ccccc2)c2cc(Cl)ccc21 [diazepam] (100 µM)", 1),
    ("CCCCNc1c(C(=O)OCC)c(C)nc2c1cnn2CC [tracazolate hydrochloride] (10 µM)", 0),
    ("CN1CCN(CCCN2c3ccccc3Sc3ccc(Cl)cc32)CC1 [prochloroperazine] (10 µM)", 1),
    ("CN1CC(=O)N=C1NC(=O)Nc1cccc(Cl)c1 [fenobam] (100 µM)", 0),
    ("O=C1CC2(CCCC2)CC(=O)N1CCCCN1CCN(c2ncccn2)CC1 [buspirone] (10 µM)", 1),
    ("O=C(CCCN1CCC(O)(c2ccc(Br)cc2)CC1)c1ccc(F)cc1 [bromperidol] (100 µM)", 0),
    ("O=C(CCCN1CC=C(n2c(=O)[nH]c3ccccc32)CC1)c1ccc(F)cc1 [droperidol] (1 µM)", 0),
    ("CCCCNc1c(C(=O)OCC)c(C)nc2c1cnn2CC [tracazolate hydrochloride] (100 µM)", 0),
    ("CN[C@H]1CC[C@@H](c2ccc(Cl)c(Cl)c2)c2ccccc21 [sertraline hydrochloride] (10 µM)", 0),
    ("O=C1CC2(CCCC2)CC(=O)N1CCCCN1CCN(c2ncccn2)CC1 [buspirone] (1 µM)", 0),
    ("CCCCNc1c(C(=O)OCC)c(C)nc2c1cnn2CC [tracazolate hydrochloride] (3.16 µM)", 0),
    ("CNCCC(Oc1ccc(C(F)(F)F)cc1)c1ccccc1 (centres undefined) [fluoxetine hydrochloride] (31.6 µM)", 0),
    ("CC(NC(C)(C)C)C(=O)c1cccc(Cl)c1 (centres undefined) [bupropion] (10 µM)", 0),
    ("O=C(CCCN1CC=C(n2c(=O)[nH]c3ccccc32)CC1)c1ccc(F)cc1 [droperidol] (100 µM)", 1),
    ("CN(C)CCCN1c2ccccc2CCc2ccccc21 [imipramine] (1 µM)", 0),
    ("CN1CCN(C2=Nc3cc(Cl)ccc3Nc3ccccc32)CC1 [clozapine] (3.16 µM)", 0),
    ("CNCC[C@H](Oc1cccc2ccccc12)c1cccs1 [s-duloxetine] (10 µM)", 1),
    ("O=C1CC2(CCCC2)CC(=O)N1CCCCN1CCN(c2ncccn2)CC1 [buspirone] (100 µM)", 1),
    ("CNCCC(Oc1ccc(C(F)(F)F)cc1)c1ccccc1 (centres undefined) [fluoxetine hydrochloride] (100 µM)", 1),
    ("O=C1CCc2ccc(OCCCCN3CCN(c4cccc(Cl)c4Cl)CC3)cc2N1 [aripiprazole] (31.6 µM)", 1),
    ("O=C(CCCN1CCC(O)(c2ccc(Br)cc2)CC1)c1ccc(F)cc1 [bromperidol] (10 µM)", 0),
    ("CN1CCN(CCCN2c3ccccc3Sc3ccc(Cl)cc32)CC1 [prochloroperazine] (3.16 µM)", 0),
    ("CN(C)CCC[C@@]1(c2ccc(F)cc2)OCc2cc(C#N)ccc21 [escitalopram] (1000 µM)", 0),
    ("O=C(CCCN1CCC(O)(c2ccc(Cl)cc2)CC1)c1ccc(F)cc1 [haloperidol] (3.16 µM)", 1),
    ("CN1C(=O)CN=C(c2ccccc2)c2cc(Cl)ccc21 [diazepam] (3.16 µM)", 1),
    ("CN[C@H]1CC[C@@H](c2ccc(Cl)c(Cl)c2)c2ccccc21 [sertraline hydrochloride] (100 µM)", 0),
    ("CN(C)CCCC1(c2ccc(F)cc2)OCc2cc(C#N)ccc21 (centres undefined) [citalopram hydrobromide] (316 µM)", 0),
    ("CN(C)CCCC1(c2ccc(F)cc2)OCc2cc(C#N)ccc21 (centres undefined) [citalopram hydrobromide] (31.6 µM)", 0),
]
